- Assayed Target: SHV Asn276Asp β-lactamase (Klebsiella pneumoniae, UniProt P0AD64, N270D)
- Assay Overview: Steady-state substrate hydrolysis kinetics, Asn276Asp
- Type: biochemical
- Setup Conditions: PBS pH 7.4, room temperature
Quantity: Km (µM)

| Molecule | Units Text | Observed |
| --- | --- | --- |
| CC1(C)S[C@@H]2[C@H](NC(=O)[C@H](N)c3ccccc3)C(=O)N2[C@H]1C(=O)O [ampicillin] | µM | 134 |
| CCN1CCN(C(=O)N[C@@H](C(=O)N[C@@H]2C(=O)N3[C@@H]2SC(C)(C)[C@@H]3C(=O)O)c2ccccc2)C(=O)C1=O [piperacillin] | µM | 105 |
| O=C(Cc1cccs1)N[C@@H]1C(=O)N2C(C(=O)O)=C(/C=C/c3ccc([N+](=O)[O-])cc3[N+](=O)[O-])CS[C@H]12 [Nitrocefin, nitrocefin] | µM | 28 |
| CC(=O)OCC1=C(C(=O)O)N2C(=O)[C@@H](NC(=O)Cc3cccs3)[C@H]2SC1 [cephalothin] | µM | 83 |

Sourced from paper PMC4030617
